Assayed target: EGFR with insertion SVD between D770 and N771 (mutEGFR D770_N771insSVD) (Homo sapiens, UniProt P00533, DUP768-770)
Construct: amino acids R669 to A1210; made in house; host or cells: Sf9 insect cells (baculovirus)
Sequence (P00533 other isoform, or with tags, fused parts or gaps DUP768-770): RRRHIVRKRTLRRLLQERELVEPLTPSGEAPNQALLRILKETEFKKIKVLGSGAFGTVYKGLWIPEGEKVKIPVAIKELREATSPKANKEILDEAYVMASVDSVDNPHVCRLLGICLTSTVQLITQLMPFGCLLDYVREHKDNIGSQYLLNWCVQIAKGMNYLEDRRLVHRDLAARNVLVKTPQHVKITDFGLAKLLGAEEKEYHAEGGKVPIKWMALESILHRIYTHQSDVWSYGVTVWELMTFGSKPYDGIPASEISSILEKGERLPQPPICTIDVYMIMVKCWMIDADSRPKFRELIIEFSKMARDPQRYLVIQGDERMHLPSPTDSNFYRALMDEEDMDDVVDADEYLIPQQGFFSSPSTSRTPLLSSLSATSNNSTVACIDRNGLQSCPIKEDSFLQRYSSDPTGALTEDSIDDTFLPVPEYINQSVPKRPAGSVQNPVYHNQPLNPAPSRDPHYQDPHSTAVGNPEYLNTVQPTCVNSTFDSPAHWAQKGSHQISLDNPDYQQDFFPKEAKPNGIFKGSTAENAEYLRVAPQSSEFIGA
Assay explanation: Exon20-Mutant-EGFR(D770_N771insSVD) kinase assay (TR-FRET)
Assay type: biochemical
Test parameters: 2 mM ATP, Table 2
Classify as follows. Reported mutEGFR (D770_N771insSVD) kinase assay IC50 greater than or equal to 0.2 nM: rule met. Reported mutEGFR (D770_N771insSVD) kinase assay IC50 below: rule not met.

*Q* Decide: mutEGFR (D770_N771insSVD) kinase assay IC50 of Cc1c(Cl)cccc1Nc1c(-c2ccncc2OCC2COCCO2)[nH]c2c1C(=O)N[C@H](C)C2 (stereo partly drawn) [Example 102] >= 0.2 nM?
*A* rule not met

*Q* Decide: mutEGFR (D770_N771insSVD) kinase assay IC50 of C[C@@H]1Cc2[nH]c(-c3ccncc3OC[C@@H]3CCCO3)c(Nc3cccc(F)c3CC(F)F)c2C(=O)N1 [Example 63] >= 0.2 nM?
*A* rule met

*Q* Decide: mutEGFR (D770_N771insSVD) kinase assay IC50 of Cc1c(Cl)cccc1Nc1c(-c2ccncc2OC[C@@H]2CCCO2)[nH]c2c1C(=O)NCC2C (single isomer, unassigned) [Example 60] >= 0.2 nM?
*A* rule met

*Q* Decide: mutEGFR (D770_N771insSVD) kinase assay IC50 of COc1c(Cl)cccc1Nc1c(-c2ccncc2OCC2COCCO2)[nH]c2c1C(=O)N[C@H](C)C2 (single isomer, unassigned) [Example 25] >= 0.2 nM?
*A* rule not met

*Q* Decide: mutEGFR (D770_N771insSVD) kinase assay IC50 of COCC(C)Oc1cnccc1-c1[nH]c2c(c1Nc1cccc(Cl)c1OC)C(=O)N[C@H](C)C2 (single isomer, unassigned) [Example 43] >= 0.2 nM?
*A* rule met

*Q* Decide: mutEGFR (D770_N771insSVD) kinase assay IC50 of Cc1c(Cl)cccc1Nc1c(-c2ccncc2OCC2CCCCO2)[nH]c2c1C(=O)NCC2C (single isomer, unassigned) [Example 119] >= 0.2 nM?
*A* rule met

---

Assayed target: Bub1 (Homo sapiens, UniProt O43683)
Construct: catalytic domain of human Bub1 (amino acids 704-1085); His6 (N); made in house; host or cells: insect cells (Hi5)
Sequence (O43683 704-1085): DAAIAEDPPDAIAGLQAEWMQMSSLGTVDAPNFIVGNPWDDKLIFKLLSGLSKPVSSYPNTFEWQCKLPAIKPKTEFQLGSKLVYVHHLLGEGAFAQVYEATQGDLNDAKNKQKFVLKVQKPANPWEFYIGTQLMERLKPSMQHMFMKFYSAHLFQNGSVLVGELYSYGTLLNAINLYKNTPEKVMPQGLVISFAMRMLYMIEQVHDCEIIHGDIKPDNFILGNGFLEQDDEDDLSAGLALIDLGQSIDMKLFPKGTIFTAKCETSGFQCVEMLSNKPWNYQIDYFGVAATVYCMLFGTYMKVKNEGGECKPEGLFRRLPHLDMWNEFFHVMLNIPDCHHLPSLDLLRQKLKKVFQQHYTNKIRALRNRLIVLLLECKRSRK
Assay explanation: Bub1 high ATP kinase assay (TR-FRET)
Format: biochemical
Test parameters: Bub1 high ATP (2 mM) IC50, TR-FRET, 2 mM ATP; Table 3
Readout: IC50 (µM)
Numeric only. Scale: µM

Worked cases, answers included:
{"Compound": "COc1c(Cl)cccc1Nc1c(-c2ccncc2OC[C@@H]2COCCN2C)[nH]c2c1C(=O)NCC2CCF (single isomer, unassigned) [Example 90]", "IC50 (µM)": 3.88}
{"Compound": "COc1c(Cl)cccc1Nc1c(-c2ccncc2OCC2(C)CCO2)[nH]c2c1C(=O)NCC2CCO (stereo not shown) [Example 19]", "IC50 (µM)": 13.5}

*Q* Please look up its IC50: COc1c(Cl)cccc1Nc1c(-c2ccncc2OCC2COCCO2)[nH]c2c1C(=O)N[C@H](C)C2 (single isomer, unassigned) [Example 25]
*A* 5.41

*Q* Please look up its IC50: COc1c(Cl)cccc1Nc1c(-c2ccncc2OCC2COC(C)(C)CO2)[nH]c2c1C(=O)NC1(CCC1)C2 (stereo not shown) [Example 129]
*A* 1.31

*Q* Please look up its IC50: COc1c(Cl)cccc1Nc1c(-c2ccncc2OC[C@@H]2COCCN2C)[nH]c2c1C(=O)NCC2CCF (single isomer, unassigned) [Example 89]
*A* 15.6

*Q* Please look up its IC50: COc1c(Cl)cccc1Nc1c(-c2ccncc2OCC2COCCO2)[nH]c2c1C(=O)N[C@H](C)C2 (mixture of isomers) [Example 24]
*A* 3.48

*Q* Please look up its IC50: COc1c(Cl)cccc1Nc1c(-c2ccncc2OCC2COCCO2)[nH]c2c1C(=O)NC1(CCC1)C2 (single isomer, unassigned) [Example 125]
*A* 0.446
